tested on: CCRIS mutagenicity, Ames/micronucleus/aberration tests; assay: CCRIS mutagenicity studies; settings: Test System: AMES SALMONELLA TYPHIMURIUM; Strain/Indicator: TA100; Metabolic Activation: HAMSTER, LIVER, S-9, AROCLOR 1254 (30%); Method: PREINCUBATION
Activity calls are given as the source filed them. The rule behind the calls is not given here.
Please answer using one outcome listed in active, inactive

Prompt: What did the test return for C=C(C)C#N ?
Completion: inactive

Prompt: What did the test return for c1ccc2cc(Nc3ccc(Nc4ccc5ccccc5c4)cc3)ccc2c1 ?
Completion: inactive

Prompt: What did the test return for CCCCCCCC(=O)Cl ?
Completion: active

Prompt: What did the test return for CCC(C)Nc1ccc(NC(C)CC)cc1 (stereo unspecified) ?
Completion: inactive

Prompt: What did the test return for Cc1ccc(Br)cc1 ?
Completion: inactive

Prompt: What did the test return for CCCCc1ccc(N=Cc2ccc(OC)cc2)cc1 ?
Completion: active

Prompt: What did the test return for CC(C)(Cl)[N+](=O)[O-] ?
Completion: inactive

Prompt: What did the test return for [Ga]#[As] ?
Completion: inactive

Prompt: What did the test return for NC(=O)Nc1nc2ccccc2[nH]1 ?
Completion: inactive

Prompt: What did the test return for COc1cc([N+](=O)[O-])ccc1N=NC(C(C)=O)C(=O)Nc1ccccc1OC (stereo unspecified) ?
Completion: inactive

Prompt: What did the test return for CCN(CC)CCNc1ccc(CO)c2sc3ccccc3c(=O)c12 ?
Completion: active

Prompt: What did the test return for O=C1CCC(=O)O1 ?
Completion: inactive

Prompt: What did the test return for COc1cc(N)ccc1C ?
Completion: active

Prompt: What did the test return for Cc1cc(O)ccc1Cl ?
Completion: inactive

Prompt: What did the test return for COc1ccc(N)c(OC)c1 ?
Completion: active

Prompt: What did the test return for c1ccc(Nc2ccc3ccccc3c2)cc1 ?
Completion: inactive

Prompt: What did the test return for COC(=O)c1ccc(C)cc1 ?
Completion: inactive

Prompt: What did the test return for O=C1c2ccccc2C(=O)C1(O)O ?
Completion: inactive

Prompt: What did the test return for COc1ccc(N)c(C)c1 ?
Completion: active

Prompt: What did the test return for Cc1cc(Cl)ccc1O ?
Completion: inactive

Prompt: What did the test return for Cc1ccc(C)o1 ?
Completion: inactive

Prompt: What did the test return for c1cc2c3c(c1)ccc1cccc(c13)C2 ?
Completion: active

Prompt: What did the test return for O=S(=O)(O)c1ccc(N=Nc2c(O)ccc3cc(S(=O)(=O)O)ccc23)cc1 ?
Completion: inactive

Prompt: What did the test return for Clc1cc2c3nc4[n-]c(nc5nc(nc6nc(nc([n-]3)c2c(Cl)c1Cl)-c1c(Cl)c(Cl)c(Cl)c(Cl)c1-6)-c1c(Cl)c(Cl)c(Cl)c(Cl)c1-5)c1c(Cl)c(Cl)c(Cl)c(Cl)c41.[Cu+2] ?
Completion: inactive

Prompt: What did the test return for O=Cc1ccc(Cl)c(Cl)c1 ?
Completion: inactive

Prompt: What did the test return for Oc1c(I)cc(Cl)c2cccnc12 ?
Completion: inactive

Prompt: What did the test return for CCC(Cl)[N+](=O)[O-] (stereo unspecified) ?
Completion: active

Prompt: What did the test return for COc1ccc(C)cc1N ?
Completion: active

Prompt: What did the test return for Cc1ccccc1Br ?
Completion: inactive

Prompt: What did the test return for ClCC(Cl)Cl ?
Completion: inactive

Prompt: What did the test return for O=C/C=C/c1ccco1 ?
Completion: inactive

Prompt: What did the test return for S=P(N1CC1)(N1CC1)N1CC1 ?
Completion: active

Prompt: What did the test return for c1ccc(Nc2ccccc2)cc1 ?
Completion: inactive

Prompt: What did the test return for CC(CC(=O)O)C(=O)O (stereo unspecified) ?
Completion: inactive

Prompt: What did the test return for Nc1cc(Cl)ccc1Cl ?
Completion: inactive

Prompt: What did the test return for N#CCO ?
Completion: inactive
